# Test system: Rattus norvegicus
# PROTOCOL DETAILS: Topical anti-inflammatory activity relative to fluocinolone acetonide in rats.
# Assay type: functional
Overview of reported Activity across a group of compounds:
Number, no unit, nothing else.

COMPOUND	Activity
CC(=O)O[C@]1(C(=O)SCCl)[C@@H](C)CC2C3CCC4=CC(=O)C=C[C@]4(C)[C@@]3(F)[C@@H](O)C[C@@]21C (some centres undefined)	24
CC(=O)O[C@]1(C(=O)SCF)[C@H](C)CC2C3C[C@H](F)C4=CC(=O)C=C[C@]4(C)[C@@]3(F)[C@@H](O)C[C@@]21C (some centres undefined)	88
CCC(=O)O[C@]1(C(=O)SCF)[C@@H](C)CC2C3CCC4=CC(=O)C=C[C@]4(C)[C@H]3[C@@H](O)C[C@@]21C (some centres undefined)	44

We next turn to a different compound, shown below.
Return the recorded Activity value; entry: C=C1CC2C3CCC4=CC(=O)C=C[C@]4(C)[C@@]3(F)[C@@H](O)C[C@]2(C)[C@@]1(OC(=O)CC)C(=O)SCCl (some centres undefined)
12
